Target Desc: Arginase-2, mitochondrial (Homo sapiens)
Protocol Details: in vitro enzyme assay to detect the production of urea directly proportional to the activity of Arginase II
Type: functional
Parameters: scale not given: in the data most compounds retested in dose-response had high values
Applied Conditions: 33.3 µM
Property: Percent Effect (%)
The response must be a number in % with no trailing unit.

Examples with their reported Percent Effect follow.
>  <Compound>
Cc1nn(C)c(C)c1C1CCCN1Cc1nc(-c2ccco2)no1 (stereo unspecified)

>  <Property>
Percent Effect

>  <Unit Abbreviation>
%

>  <Reading>
-2.03

$$$$
>  <Compound>
Cc1ccc(CN2CCC3(C2)C(=O)N(CC(C)C)c2ccccc23)s1 (stereo unspecified)

>  <Property>
Percent Effect

>  <Unit Abbreviation>
%

>  <Reading>
3.75

$$$$
>  <Compound>
CN(C)CC1CN(CCOc2cccc(C#N)c2)CCO1 (stereo unspecified)

>  <Property>
Percent Effect

>  <Unit Abbreviation>
%

>  <Reading>
5.75

$$$$
>  <Compound>
Cn1ncc2c(=O)[nH]c(CN3CCCC3c3cccs3)nc21 (stereo unspecified)

>  <Property>
Percent Effect

>  <Unit Abbreviation>
%

>  <Reading>
1.14

$$$$
>  <Compound>
CCN(CCn1cccn1)Cc1nc(-c2cccs2)oc1C

>  <Property>
Percent Effect

>  <Unit Abbreviation>
%

>  <Reading>
0.442

$$$$

// next item, Percent Effect requested
Q: What value of measured Percent Effect is listed for O=C1N(Cc2cccc(F)c2F)CCCC1(O)CN1CCCOCC1 (stereo unspecified) ?
Result: 0
